# Target Or Test System: T1, purified interference factor(s) from serum of Donor A
# T1 construct: text names Donors 8, 19 and 30
# Method Notes: Biacore, immobilized interference factor
Measurement Type: binding vs Reference Sequence (=100%)
Quick reminder: number only, in %, skip the unit.

Please give the measured binding vs Reference Sequence (=100%) for this binder: SEQ ID NO 83 (VHH, T87A) VHH: EVQLVESGGGLVQPGGSLRLSCAASRSIGRLDRMGWYRHRPGEPRELVATITGGSSINYGDSVKGRFTISIDNSKNTVYLQMNSLRPEDAAVYYCNFNKYVTSRDTWGQGTLVTVSS 56

What about this binder? SEQ ID NO 78 (VHH, Q13R) VHH: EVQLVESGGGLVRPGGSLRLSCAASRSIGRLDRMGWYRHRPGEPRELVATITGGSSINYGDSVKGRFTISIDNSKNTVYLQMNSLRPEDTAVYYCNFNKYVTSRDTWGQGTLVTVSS 96

What about this binder? SEQ ID NO 65 (VHH, P14A) VHH: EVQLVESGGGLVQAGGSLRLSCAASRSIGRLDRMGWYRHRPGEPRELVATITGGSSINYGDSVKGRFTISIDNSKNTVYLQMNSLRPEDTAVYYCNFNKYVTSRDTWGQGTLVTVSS 73

What about this binder? SEQ ID NO 69 (VHH, L108Q) VHH: EVQLVESGGGLVQPGGSLRLSCAASRSIGRLDRMGWYRHRPGEPRELVATITGGSSINYGDSVKGRFTISIDNSKNTVYLQMNSLRPEDTAVYYCNFNKYVTSRDTWGQGTQVTVSS 80

What about this binder? SEQ ID NO 81 (VHH, L11V) VHH: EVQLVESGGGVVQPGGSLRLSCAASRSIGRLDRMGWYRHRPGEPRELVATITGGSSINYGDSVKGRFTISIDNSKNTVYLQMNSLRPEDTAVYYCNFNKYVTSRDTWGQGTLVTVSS 94

What about this binder? SEQ ID NO 79 (VHH, C-terminal: GG) VHH: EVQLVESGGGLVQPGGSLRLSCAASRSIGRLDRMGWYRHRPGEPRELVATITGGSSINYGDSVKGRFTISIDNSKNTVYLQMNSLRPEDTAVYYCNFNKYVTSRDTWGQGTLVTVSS 1

What about this binder? SEQ ID NO 47 (VHH) VHH: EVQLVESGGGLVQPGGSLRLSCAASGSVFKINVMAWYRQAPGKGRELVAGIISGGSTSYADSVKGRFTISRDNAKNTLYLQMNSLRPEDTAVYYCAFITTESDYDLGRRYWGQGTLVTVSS 1

What about this binder? SEQ ID NO 73 (VHH, C-terminal: G; S112G, S113G) VHH: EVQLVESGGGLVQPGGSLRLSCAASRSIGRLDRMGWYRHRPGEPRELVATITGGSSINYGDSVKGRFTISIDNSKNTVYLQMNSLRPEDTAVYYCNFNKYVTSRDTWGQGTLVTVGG 6

What about this binder? SEQ ID NO 75 (VHH, C-terminal: AA) VHH: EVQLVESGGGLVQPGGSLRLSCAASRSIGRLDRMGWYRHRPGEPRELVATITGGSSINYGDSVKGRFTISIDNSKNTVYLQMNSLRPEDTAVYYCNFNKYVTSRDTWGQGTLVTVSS 1

What about this binder? SEQ ID NO 88 (VHH, C-terminal: A; L11S, T110Q) VHH: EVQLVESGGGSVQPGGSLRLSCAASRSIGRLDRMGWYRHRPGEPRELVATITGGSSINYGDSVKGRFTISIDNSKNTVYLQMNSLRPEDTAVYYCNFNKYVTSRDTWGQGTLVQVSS 1

What about this binder? SEQ ID NO 72 (VHH, S112G, S113G) VHH: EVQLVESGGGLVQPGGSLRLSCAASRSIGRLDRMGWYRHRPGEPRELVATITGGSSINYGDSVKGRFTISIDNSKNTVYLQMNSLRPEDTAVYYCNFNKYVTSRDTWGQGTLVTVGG 70

What about this binder? SEQ ID NO 84 (VHH, S112G) VHH: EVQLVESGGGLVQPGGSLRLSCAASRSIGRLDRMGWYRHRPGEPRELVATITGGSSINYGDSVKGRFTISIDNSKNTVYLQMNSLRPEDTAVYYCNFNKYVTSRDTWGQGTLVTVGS 84

What about this binder? SEQ ID NO 74 (VHH, C-terminal: G) VHH: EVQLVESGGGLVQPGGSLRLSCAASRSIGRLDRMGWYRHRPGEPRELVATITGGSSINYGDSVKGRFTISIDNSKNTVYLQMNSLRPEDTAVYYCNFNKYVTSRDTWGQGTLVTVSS 4

What about this binder? SEQ ID NO 70 (VHH, T110Q) VHH: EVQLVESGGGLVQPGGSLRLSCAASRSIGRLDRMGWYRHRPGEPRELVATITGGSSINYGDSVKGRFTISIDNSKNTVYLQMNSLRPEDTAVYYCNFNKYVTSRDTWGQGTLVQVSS 90

What about this binder? SEQ ID NO 71 (VHH, S113G) VHH: EVQLVESGGGLVQPGGSLRLSCAASRSIGRLDRMGWYRHRPGEPRELVATITGGSSINYGDSVKGRFTISIDNSKNTVYLQMNSLRPEDTAVYYCNFNKYVTSRDTWGQGTLVTVSG 88
